biological target: recombinant CZP (cruzain) (Trypanosoma cruzi); construct: gift of Allison Doak and Prof; Brian Shoichet (University of California San Francisco); test: CZP inhibition, cleavage of fluorogenic substrate Z-FR-AMC (initial screening and IC50); assay type: biochemical, T. cruzi; conditions: 100 μM, 10 min pre-incubation of the enzyme with compound; read-out: % CZP inh.
Sequence (P25779 123-337): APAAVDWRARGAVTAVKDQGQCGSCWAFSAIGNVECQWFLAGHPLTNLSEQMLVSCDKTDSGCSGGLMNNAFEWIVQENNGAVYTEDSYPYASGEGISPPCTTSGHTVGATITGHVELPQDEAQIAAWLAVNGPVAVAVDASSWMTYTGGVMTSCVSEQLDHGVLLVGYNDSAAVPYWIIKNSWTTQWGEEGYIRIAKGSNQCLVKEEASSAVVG
Exercise: state measured inhibition at 100 µM for each of the compounds provided.
Provide the reading as a plain figure in %.

The recorded inhibition at 100 µM with recombinant CZP (cruzain) (Trypanosoma cruzi) for COC(=O)C(Cc1c[nH]cn1)n1cc(C(NCc2ccc3c(c2)OCO3)C2CCCCC2)nn1 (stereo not drawn) was 5

The recorded inhibition at 100 µM with recombinant CZP (cruzain) (Trypanosoma cruzi) for COC(=O)C(C(C)O)n1cc(C(C2CCCCC2)N2CCc3ccccc3C2)nn1 (stereo not drawn) was 0

The recorded inhibition at 100 µM with recombinant CZP (cruzain) (Trypanosoma cruzi) for COC(=O)C(C(C)O)n1cc(C(NCc2ccc3c(c2)OCO3)C2CCCCC2)nn1 (stereo not drawn) was 0

The recorded inhibition at 100 µM with recombinant CZP (cruzain) (Trypanosoma cruzi) for CC(O)C(C=O)n1cc(C(C2CCCCC2)N2CCc3ccccc3C2)nn1 (stereo not drawn) was 8

The recorded inhibition at 100 µM with recombinant CZP (cruzain) (Trypanosoma cruzi) for COC(=O)C(CCCNC(=N)N)n1cc(C(C2CCCCC2)N2CCc3ccccc3C2)nn1 (stereo not drawn) was 6

The recorded inhibition at 100 µM with recombinant CZP (cruzain) (Trypanosoma cruzi) for COC(=O)C(CC(C)C)n1cc(C(NCc2ccc3c(c2)OCO3)C2CCCCC2)nn1 (stereo not drawn) was 5

The recorded inhibition at 100 µM with recombinant CZP (cruzain) (Trypanosoma cruzi) for CSCCC(C=O)n1cc(C(C2CCCCC2)N2CCc3ccccc3C2)nn1 (stereo not drawn) was 16

The recorded inhibition at 100 µM with recombinant CZP (cruzain) (Trypanosoma cruzi) for CCOC(=O)C(CCSC)n1cc(C(C2CCCCC2)N2CCc3ccccc3C2)nn1 (stereo not drawn) was 0

The recorded inhibition at 100 µM with recombinant CZP (cruzain) (Trypanosoma cruzi) for O=CC(Cc1ccccc1)n1cc(C(NCc2ccc3c(c2)OCO3)C2CCCCC2)nn1 (stereo not drawn) was 64

The recorded inhibition at 100 µM with recombinant CZP (cruzain) (Trypanosoma cruzi) for CC(C)CC(C=O)n1cc(C(NCc2ccc3c(c2)OCO3)C2CCCCC2)nn1 (stereo not drawn) was 64

The recorded inhibition at 100 µM with recombinant CZP (cruzain) (Trypanosoma cruzi) for COC(=O)C(CCC(=O)O)n1cc(C(NCc2ccc3c(c2)OCO3)C2CCCCC2)nn1 (stereo not drawn) was 8

The recorded inhibition at 100 µM with recombinant CZP (cruzain) (Trypanosoma cruzi) for O=CC(CCC(=O)O)n1cc(C(NCc2ccc3c(c2)OCO3)C2CCCCC2)nn1 (stereo not drawn) was 8

The recorded inhibition at 100 µM with recombinant CZP (cruzain) (Trypanosoma cruzi) for COC(=O)C(C(C)C)n1cc(C(NCc2ccc3c(c2)OCO3)C2CCCCC2)nn1 (stereo not drawn) was 9

The recorded inhibition at 100 µM with recombinant CZP (cruzain) (Trypanosoma cruzi) for COC(=O)C(c1ccccc1)n1cc(C(NCc2ccc3c(c2)OCO3)C2CCCCC2)nn1 (stereo not drawn) was 6

The recorded inhibition at 100 µM with recombinant CZP (cruzain) (Trypanosoma cruzi) for O=CC(Cc1c[nH]c2ccccc12)n1cc(C(NCc2ccc3c(c2)OCO3)C2CCCCC2)nn1 (stereo not drawn) was 56

The recorded inhibition at 100 µM with recombinant CZP (cruzain) (Trypanosoma cruzi) for O=CC(c1ccccc1)n1cc(C(C2CCCCC2)N2CCc3ccccc3C2)nn1 (stereo not drawn) was 3

The recorded inhibition at 100 µM with recombinant CZP (cruzain) (Trypanosoma cruzi) for CSCCC(C=O)n1cc(C(NCc2ccc3c(c2)OCO3)C2CCCCC2)nn1 (stereo not drawn) was 42

The recorded inhibition at 100 µM with recombinant CZP (cruzain) (Trypanosoma cruzi) for COC(=O)C(CO)n1cc(C(C2CCCCC2)N2CCc3ccccc3C2)nn1 (stereo not drawn) was 5

Provenance of the data: paper PMC11396839
